- Tested System: Relaxin receptor 2 (Homo sapiens)
- Assay Overview: qHTS Assay for Agonists of the Relaxin Receptor RXFP1: RXFP2 SAR
- Test Settings: HEK293 RXFP2 cAMP TR-FRET agonist, 30 min; series mostly up to 78.1 µM
Results filed as inconclusive are left out. The source made the active and inactive calls. Calls come from the whole dose curve; as a rule, active = well fitted activation curve with a large enough effect; inconclusive = small, poorly fitted or top-dose-only effect; inactive = no such curve, though single readings can be large or run the other way.
Experimental Endpoint: Potency

{"Molecular String": "COCCOc1ccccc1C(=O)Nc1ccccc1C(=O)Nc1cccc(C(F)(F)F)c1", "Tested System": "Relaxin receptor 2 (Homo sapiens)", "Potency": "5.29 µM (active)"}
{"Molecular String": "O=C(Nc1ccccc1C(=O)Nc1cccc(C(F)(F)F)c1)c1cccnc1", "Tested System": "Relaxin receptor 2 (Homo sapiens)", "Potency": "inactive"}
{"Molecular String": "O=C(NCc1ccco1)c1ccccc1NC(=O)c1ccccc1NC(=O)C1CCCCC1", "Tested System": "Relaxin receptor 2 (Homo sapiens)", "Potency": "inactive"}
{"Molecular String": "COc1ccccc1C(=O)Nc1ccccc1C(=O)Nc1cccc(C(F)(F)F)c1", "Tested System": "Relaxin receptor 2 (Homo sapiens)", "Potency": "5.93 µM (active)"}
{"Molecular String": "O=C(Nc1cccc(-c2cccc(C(F)(F)F)c2)c1)c1ccccc1NC(=O)C1CCCCC1", "Tested System": "Relaxin receptor 2 (Homo sapiens)", "Potency": "inactive"}
{"Molecular String": "O=C(Nc1cccc(C(F)(F)F)c1)c1ccccc1NC(=O)C1CCCCCC1", "Tested System": "Relaxin receptor 2 (Homo sapiens)", "Potency": "inactive"}

IN: # query: Potency of entry "CCOc1ccccc1C(=O)NCCC(=O)Nc1cccc(S(=O)(=O)C(F)(F)F)c1"
OUT: inactive

---

- Tested System: Relaxin receptor 2 (Homo sapiens) (UniProt Q8WXD0)
- Sequence (Q8WXD0 whole entry, looked up): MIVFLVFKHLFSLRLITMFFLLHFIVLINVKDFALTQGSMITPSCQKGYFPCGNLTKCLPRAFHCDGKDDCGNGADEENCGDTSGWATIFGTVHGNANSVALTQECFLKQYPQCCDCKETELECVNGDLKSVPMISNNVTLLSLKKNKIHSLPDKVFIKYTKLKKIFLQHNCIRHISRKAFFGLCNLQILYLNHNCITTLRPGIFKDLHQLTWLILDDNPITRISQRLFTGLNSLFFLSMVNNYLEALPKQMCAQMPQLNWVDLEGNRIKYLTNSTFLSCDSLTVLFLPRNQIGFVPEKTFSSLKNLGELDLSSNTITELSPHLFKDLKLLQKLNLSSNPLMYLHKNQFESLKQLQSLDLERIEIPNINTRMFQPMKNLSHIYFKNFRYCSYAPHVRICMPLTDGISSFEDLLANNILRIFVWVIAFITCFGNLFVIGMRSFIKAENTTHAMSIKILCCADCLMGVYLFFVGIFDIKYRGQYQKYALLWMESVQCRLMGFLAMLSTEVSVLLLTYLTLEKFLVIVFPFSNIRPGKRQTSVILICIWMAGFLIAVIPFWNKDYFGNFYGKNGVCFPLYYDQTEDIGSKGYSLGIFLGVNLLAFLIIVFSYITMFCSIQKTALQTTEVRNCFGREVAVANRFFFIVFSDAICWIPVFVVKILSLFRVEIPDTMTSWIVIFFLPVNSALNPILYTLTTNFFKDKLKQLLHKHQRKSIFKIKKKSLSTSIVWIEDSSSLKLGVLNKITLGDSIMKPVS
- Assay Overview: qHTS Assay for Agonists of the Relaxin Receptor RXFP1: RXFP2 SAR
- Test Settings: HEK293 RXFP2 cAMP TR-FRET agonist, 30 min; series mostly up to 78.1 µM
Records with an inconclusive call do not appear. Activity calls are given as the source filed them. The call rests on the fitted dose curve; in most records, active means well fitted activation curve with a large enough effect; inconclusive means small, poorly fitted or top-dose-only effect; inactive means no such curve, though single readings can be large or run the other way.
// allowed return values: active, inactive

Worked examples follow.
{"Molecular String": "CCCOc1ccccc1C(=O)Nc1ccccc1C(=O)Nc1cccc(S(=O)(=O)C(F)(F)F)c1", "Assigned Category": "inactive"}
{"Molecular String": "O=C(Nc1ccccc1)c1ccccc1NC(=O)C1CCCCC1", "Assigned Category": "inactive"}
{"Molecular String": "Cc1ccccc1NC(=O)c1ccccc1NC(=O)C1CCCCC1", "Assigned Category": "inactive"}

IN: Lab log entry: "CCOc1ccccc1C(=O)Nc1ccncc1C(=O)Nc1cccc(S(=O)(=O)C(F)(F)F)c1" — outcome as called in the assay?
OUT: active

IN: What was the test verdict on "O=C(NCc1cccc(C(F)(F)F)c1)c1ccccc1NC(=O)C1CCCCC1" ?
OUT: inactive

IN: Field: outcome | Entry: "CCOc1ccccc1C(=O)Nc1ccccc1C(=O)Nc1cccc(C(F)(F)F)c1"
OUT: active

IN: What call does the record list for "O=C(Cc1ccccc1)Nc1ccccc1C(=O)Nc1cccc(C(F)(F)F)c1" ?
OUT: inactive

IN: Hi team, can someone confirm the assay call for "CCOc1ccccc1C(=O)Nc1cnccc1C(=O)Nc1cccc(S(=O)(=O)C(F)(F)F)c1" ?
OUT: inactive

IN: GET /call?item= "CCOc1ccccc1S(=O)(=O)Nc1ccccc1C(=O)Nc1cccc(S(=O)(=O)C(F)(F)F)c1" returns the recorded outcome of this test.
OUT: inactive

IN: For "CCOc1ccccc1C(=O)Nc1ccccc1C(=O)Nc1cccc(S(=O)(=O)C(F)(F)F)c1" , which call appears in the assay record?
OUT: active

IN: # lookup: test call for "O=C(Nc1cccc(SC(F)(F)F)c1)c1ccccc1NC(=O)C1CCCCC1"
OUT: inactive

IN: Test call, this compound: "COCCNc1ccccc1C(=O)Nc1cccc(C(F)(F)F)c1"
OUT: inactive

IN: GET /call?item= "Cc1ccccc1C(=O)Nc1ccccc1C(=O)Nc1cccc(C(F)(F)F)c1" returns the recorded outcome of this test.
OUT: inactive
